Target: human FGK (Homo sapiens, UniProt Q9BXA5, A284G/P282A)
Construct: A complete cDNA coding for the FGK of the present invention was obtained by PCR using a human kidney cDNA
Sequence (Q9BXA5 5-334 P282A/A284G): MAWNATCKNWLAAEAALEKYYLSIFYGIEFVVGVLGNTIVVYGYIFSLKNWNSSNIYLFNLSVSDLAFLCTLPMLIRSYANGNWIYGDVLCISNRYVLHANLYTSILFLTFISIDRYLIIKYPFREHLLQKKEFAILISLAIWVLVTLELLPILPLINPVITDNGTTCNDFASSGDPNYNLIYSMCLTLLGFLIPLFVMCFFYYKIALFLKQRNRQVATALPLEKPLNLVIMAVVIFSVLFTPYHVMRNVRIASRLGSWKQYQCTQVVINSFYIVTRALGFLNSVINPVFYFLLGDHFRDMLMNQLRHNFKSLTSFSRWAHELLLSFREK
Test: Screening of substances inhibiting FGK activity: pEF-BOS-Gqi + pSRE-luc luciferase reporter in HEK293 cells transfected with human FGK
Conditions: pEF-BOS-Gqi and human FGK plasmid, 24 hours with compound, DMSO control = 100%, read-out: Example 5 Inhibition of pGqi + pSRE-luc reporter activity IC50
The label is met for IC50 below 5 µM and not met for IC50 equal to or exceeding 5 µM.

{"columns": ["compound", "tgt", "class label"],
 "data": [
  ["CC(=O)Nc1nc(C)c(-c2csc(Nc3ccc(O)cc3)n2)s1 [No 5]", "human FGK (Homo sapiens, UniProt Q9BXA5, A284G/P282A)", "met"],
  ["CCOC(=O)c1c(C)nn(-c2ccc(NC(=O)c3ccccc3C(=O)O)cc2)c1C [No 6]", "human FGK (Homo sapiens, UniProt Q9BXA5, A284G/P282A)", "not met"],
  ["CC(=O)Nc1nc(C)c(-c2csc(Nc3cccc(C)c3)n2)s1 [No 3]", "human FGK (Homo sapiens, UniProt Q9BXA5, A284G/P282A)", "met"],
  ["COc1ccc(Cl)cc1Nc1nc(-c2cccs2)cs1 [No 2]", "human FGK (Homo sapiens, UniProt Q9BXA5, A284G/P282A)", "met"],
  ["Cc1cc(C(=O)C(F)(F)F)c(C)n1-c1ccc(NC(=O)c2ccccc2F)cc1 [No 7]", "human FGK (Homo sapiens, UniProt Q9BXA5, A284G/P282A)", "met"],
  ["CC(=O)Nc1ccc(-c2csc(Nc3cccc(C(F)(F)F)c3)n2)cc1 [No 4]", "human FGK (Homo sapiens, UniProt Q9BXA5, A284G/P282A)", "met"],
  ["CCOc1ccc(Nc2nc(-c3sc(N)nc3C)cs2)cc1 [No 1]", "human FGK (Homo sapiens, UniProt Q9BXA5, A284G/P282A)", "not met"]
]}

----------
Test system: CTGF mRNA expression
Test: Inhibition of intrinsic CTGF mRNA expression in primary human proximal renal tubule epithelium cells (RPTEC), real time PCR
Assay type: cell-based
Conditions: 10 μM compound, 24 hours, CTGF/G3PDH, DMSO control = 100%
recorded endpoint: Example 6 Inhibition Intrinsic CTGF mRNA Expression at 10 μM

{"columns": ["chemical structure", "experimental result"],
 "data": [
  ["CCOC(=O)c1c(C)nn(-c2ccc(NC(=O)c3ccccc3C(=O)O)cc2)c1C", "35%"],
  ["CCOc1ccc(Nc2nc(-c3sc(N)nc3C)cs2)cc1", "62%"],
  ["CC(=O)Nc1nc(C)c(-c2csc(Nc3ccc(O)cc3)n2)s1", "81%"],
  ["CC(=O)Nc1ccc(-c2csc(Nc3cccc(C(F)(F)F)c3)n2)cc1", "65%"],
  ["COc1ccc(Cl)cc1Nc1nc(-c2cccs2)cs1", "72%"],
  ["CC(=O)Nc1nc(C)c(-c2csc(Nc3cccc(C)c3)n2)s1", "79%"],
  ["Cc1cc(C(=O)C(F)(F)F)c(C)n1-c1ccc(NC(=O)c2ccccc2F)cc1", "36%"]
]}

FYI, the data here is from patent US20050233304A1.
